Property: Tmax; scope: individual molecules
assay: Pharmacokinetic Determination (Rat PK); type: in vivo; settings: plasma, female SD rats, PO, 10.0 mg/kg
Kindly provide the numeric value in h only, without the unit symbol.

Some molecules with recorded Tmax:
[
  {
    "molecule": "C[C@@H]1Cc2c([nH]c3ccccc23)[C@@H](c2c(F)cc(/C=C/C(=O)O)cc2F)N1CC12CC(C1)C2 [Example 5A]",
    "Tmax (h)": 2
  },
  {
    "molecule": "C[C@@H]1Cc2c([nH]c3ccccc23)[C@@H](c2c(F)cc(/C=C/C(=O)O)cc2F)N1CC(C)(C)F [AZD9496, reference compound]",
    "Tmax (h)": 4
  },
  {
    "molecule": "CC/C(=C(/c1ccc(/C=C/C(=O)O)cc1)c1ccc2[nH]ncc2c1)c1ccc(F)cc1Cl [ARN810, reference compound]",
    "Tmax (h)": 1
  }
]

# ---- query molecule ----
Query: Any idea what its Tmax is? The molecule is C[C@@H]1Cc2c([nH]c3ccccc23)[C@@H](c2c(F)cc(/C=C/C(=O)O)cc2F)N1[C@H]1CCOC1 [Example 8A]
Result: 0.5
